Molecular target: T1, Cynomolgus CD3εδ Fc heterodimer (Cy CD3ε Fc / CD3δ Fc-HIS) (cynomolgus, UniProt Q95LI8 22-100)
T1 chain 1: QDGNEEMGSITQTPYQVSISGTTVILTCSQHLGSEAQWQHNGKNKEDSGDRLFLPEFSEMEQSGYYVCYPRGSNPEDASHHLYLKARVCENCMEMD
T1 chain 2: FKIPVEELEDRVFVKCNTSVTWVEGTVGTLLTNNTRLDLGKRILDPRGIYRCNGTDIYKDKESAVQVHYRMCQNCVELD
Assay: BLI (Octet), IgG on AHC sensor, pH 6.0
For each of the binders below, state its koff.
Give the figure together with its unit, number first.

Give its koff value. Item: SAD10319_P06_D12 (ADI-57425) (antibody, V domains shown) VH: QVQLVQSGAEVKKPGASVKVSCKASGYTFNRYVMHWVRQAPGQRLEWMGGIDAGTGATKYSQKFQGRVTITRDTSASTAYMELSSLRSEDTAVYYCARDAHRHYFYDVWGQGTLVTVSS VL: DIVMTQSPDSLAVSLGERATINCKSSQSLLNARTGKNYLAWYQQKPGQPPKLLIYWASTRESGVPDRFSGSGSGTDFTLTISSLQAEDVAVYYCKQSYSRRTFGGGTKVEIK
0.0192 s⁻¹

# lookup: koff of LAD9964_P01_C07 (ADI-57444) (antibody, V domains shown) VH: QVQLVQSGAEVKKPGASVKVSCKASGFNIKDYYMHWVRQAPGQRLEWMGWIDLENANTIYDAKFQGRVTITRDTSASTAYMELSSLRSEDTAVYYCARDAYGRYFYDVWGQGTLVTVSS VL: DIVMTQSPDSLAVSLGERATINCKSSQSLLNARTHKNYLAWYQQKPGQPPKLLIYWASTRESGVPDRFSGSGSGTDFTLTISSLQAEDVAVYYCKQSYSRRTFGGGTKVEIK
0.000637 s⁻¹

State the recorded koff for this entry: SAD10320_P04_E12 (ADI-57393) (antibody, V domains shown, IgG; also called Ab119) VH: QVQLVQSGAEVKKPGASVKVSCKASGFNIKDYYMHWVRQAPGQRLEWMGWIDLENANTIYDAKFQGRVTITRDTSASTAYMELSSLRSEDTAVYYCARDAYGHTFYDVWGQGTLVTVSS VL: DIVMTQSPDSLAVSLGERATINCKSSQSLLNARTGKNYLAWYQQKPGQPPKLLIYWASTRESGVPDRFSGSGSGTDFTLTISSLQAEDVAVYYCKQSYHVRTFGGGTKVEIK
0.0108 s⁻¹

Value lookup for koff; key = SAD10320_P01_H02 (ADI-57352) (antibody, V domains shown) VH: QVQLVQSGAEVKKPGASVKVSCKASGFNIKDYYMHWVRQAPGQRLEWMGWIDLENANTIYDAKFQGRVTITRDTSASTAYMELSSLRSEDTAVYYCARDAYGHSFYDVWGQGTLVTVSS VL: DIVMTQSPDSLAVSLGERATINCKSSQSLLNARTGKNYLAWYQQKPGQPPKLLIYWASTRESGVPDRFSGSGSGTDFTLTISSLQAEDVAVYYCKQSMHRRTFGGGTKVEIK
0.00334 s⁻¹

Give its koff value. Item: SAD10319_P02_D04 (ADI-57310) (antibody, V domains shown, IgG; also called Ab251) VH: QVQLVQSGAEVKKPGASVKVSCKASGYTFTSYAMHWVRQAPGQRLQWMGWIDAGTGNTYYSQKFQGRVTITRDTSASTAYMELSSLRSEDTAVYYCARDAHGHYFYDVWGQGTLVTVSS VL: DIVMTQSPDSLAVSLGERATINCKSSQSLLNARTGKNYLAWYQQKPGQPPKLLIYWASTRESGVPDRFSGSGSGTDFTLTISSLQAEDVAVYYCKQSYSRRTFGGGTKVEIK
0.00322 s⁻¹

Please report the recorded koff for SAD10320_P04_A11 (ADI-57386) (antibody, V domains shown, IgG; also called Ab109) VH: QVQLVQSGAEVKKPGASVKVSCKASGFNIKDYYMHWVRQAPGQRLQWMGWIDLENANTIYDAKFQGRVTITRDTSASTAYMELSSLRSEDTAVYYCARDARHRYFYDVWGQGTLVTVSS VL: DIVMTQSPDSLAVSLGERATINCKSSQSLLNARTGKNYLAWYQQKPGQPPKLLIYWASTRESGVPDRFSGSGSGTDFTLTISSLQAEDVAVYYCKQSYSHGTFGGGTKVEIK .
0.00741 s⁻¹

For the binder shown here, SAD10319_P05_A03 (ADI-57397) (antibody, V domains shown, IgG; also called Ab123) VH: QVQLVQSGAEVKKPGASVKVSCKASGYTFNDYAMHWVRQAPGQRLEWMGWIDAGTGNTYYSQKFQGRVTITRDTSASTAYMELSSLRSEDTAVYYCARDAHGHYFYDVWGQGTLVTVSS VL: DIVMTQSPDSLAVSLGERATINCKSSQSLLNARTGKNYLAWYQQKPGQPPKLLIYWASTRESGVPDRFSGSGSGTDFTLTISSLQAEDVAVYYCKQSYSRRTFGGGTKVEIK , give the reported koff.
0.0127 s⁻¹

Given the entry SAD10319_P04_C10 (ADI-57333) (antibody, V domains shown, IgG; also called Ab31) VH: QVQLVQSGAEVKKPGASVKVSCKASGYTFTDYSMHWVRQAPGQRLEWMGSINAGTGITKYSQKFQGRVTITRDTSASTAYMELSSLRSEDTAVYYCARDAHGRYFYDVWGQGTLVTVSS VL: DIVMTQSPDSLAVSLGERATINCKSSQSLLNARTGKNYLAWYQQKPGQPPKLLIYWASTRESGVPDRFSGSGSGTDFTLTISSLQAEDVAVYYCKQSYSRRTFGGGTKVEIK , report its measured koff.
0.00124 s⁻¹

What does the record list as koff for SAD10320_P02_D06 (ADI-57368) (antibody, V domains shown, IgG; also called Ab85) VH: QVQLVQSGAEVKKPGASVKVSCKASGFNIKDYYMHWVRQAPGQRPAWMGWIDLENANTIYDAKFQGRVTITRDTSASTAYMELSSLRSEDTAVYYCARDAYGHGFYDVWGQGTLVTVSS VL: DIVMTQSPDSLAVSLGERATINCKSSQSLLNARTGKNYLAWYQQKPGQPPKLLIYWASTRESGVPDRFSGSGSGTDFTLTISSLQAEDVAVYYCKQSYGHRTFGGGTKVEIK ?
0.00621 s⁻¹

Name the reported koff value associated with the binder SAD10320_P01_A03 (ADI-57353) (antibody, V domains shown, IgG; also called Ab60) VH: QVQLVQSGAEVKKPGASVKVSCKASGFNIKDYYMHWVRQAPGQRLEWMGWIDLENANTIYDAKFQGRVTITRDTSASTAYMELSSLRSEDTAVYYCARDHRGRYFYDVWGQGTLVTVSS VL: DIVMTQSPDSLAVSLGERATINCKSSQSLLNARTGKNYLAWYQQKPGQPPKLLIYWASTRESGVPDRFSGSGSGTDFTLTISSLQAEDVAVYYCKQSSHRRTFGGGTKVEIK
0.0271 s⁻¹
